molecular target: UniProt:P14842; assay: Ca2+ mobilization assay; format: cell-based; settings: r5-HT2A EC50, Ca2+ mobilization
Sequence (P14842 whole entry): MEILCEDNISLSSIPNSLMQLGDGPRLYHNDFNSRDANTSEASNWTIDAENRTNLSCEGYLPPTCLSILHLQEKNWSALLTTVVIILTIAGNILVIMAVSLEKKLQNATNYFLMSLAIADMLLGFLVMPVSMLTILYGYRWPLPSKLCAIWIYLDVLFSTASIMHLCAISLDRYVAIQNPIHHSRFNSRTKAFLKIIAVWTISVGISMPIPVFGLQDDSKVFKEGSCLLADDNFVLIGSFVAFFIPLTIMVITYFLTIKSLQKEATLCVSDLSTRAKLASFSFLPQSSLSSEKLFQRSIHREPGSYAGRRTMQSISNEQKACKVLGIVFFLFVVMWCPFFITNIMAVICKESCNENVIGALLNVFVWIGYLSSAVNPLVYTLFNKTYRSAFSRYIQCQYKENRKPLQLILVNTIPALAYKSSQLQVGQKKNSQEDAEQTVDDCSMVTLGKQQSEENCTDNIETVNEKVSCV
experimental readout: log10 EC50 (log10 of the value in nM)

# query smiles, tested target, log10 EC50
measured = [
    ("COc1ccc2[nH]cc(CCNCc3cccc(F)c3)c2c1", "UniProt:P14842", 1.90),
    ("COc1ccc(CNCCc2cc(OC)c(I)cc2OC)cc1", "UniProt:P14842", 1.70),
    ("COc1ccc2[nH]cc(CCNCc3ccccc3Br)c2c1", "UniProt:P14842", 2.65),
    ("COc1ccc2[nH]cc(CCNCc3cccc(I)c3)c2c1", "UniProt:P14842", 2.08),
    ("COc1cc(CCNCc2ccccc2OC)c(OC)cc1I", "UniProt:P14842", 1.04),
    ("COc1cccc(CNCCc2cc(OC)c(I)cc2OC)c1", "UniProt:P14842", 1.43),
    ("COc1cccc(CNCCc2c[nH]c3ccc(OC)cc23)c1", "UniProt:P14842", 1.53),
    ("COc1ccc2[nH]cc(CCNCc3cccc(SC)c3)c2c1", "UniProt:P14842", 2.08),
    ("COc1ccc2[nH]cc(CCNCc3ccc(Br)cc3)c2c1", "UniProt:P14842", 3.18),
    ("COc1ccc2[nH]cc(CCNCc3cccc(Br)c3)c2c1", "UniProt:P14842", 2.11),
    ("COc1cc(CCNCc2cccc(Br)c2)c(OC)cc1I", "UniProt:P14842", 1.15),
    ("COc1ccc2[nH]cc(CCNCc3cccc(C(F)(F)F)c3)c2c1", "UniProt:P14842", 2.89),
    ("COc1ccc2[nH]cc(CCNCc3ccccc3OC)c2c1", "UniProt:P14842", 1.32),
    ("COc1ccc2[nH]cc(CCNCc3cccc(Cl)c3)c2c1", "UniProt:P14842", 1.92),
    ("COc1cc(CCNCc2ccc(Br)cc2)c(OC)cc1I", "UniProt:P14842", 2.18),
    ("COc1ccc(CNCCc2c[nH]c3ccc(OC)cc23)cc1", "UniProt:P14842", 2.28),
    ("COc1cc(CCNCc2ccccc2Br)c(OC)cc1I", "UniProt:P14842", 1.56),
]

====

tested on: Male C57BL/6J mice; test: Mouse head twitch response; details: SC, mouse head twitch

# compound, maximally effective dose / mg/kg
data = [
    ("COc1ccc2[nH]cc(CCNCc3cccc(C)c3)c2c1 [Compound 5j]", 10),
    ("COc1ccc2[nH]cc(CCNCc3cccc(I)c3)c2c1 [Compound 5i]", 30),
    ("COc1cc(CCNCc2ccccc2Br)c(OC)cc1I [Compound 4c]", 10),
    ("COc1cccc(CNCCc2cc(OC)c(I)cc2OC)c1 [Compound 4a]", 30),
    ("COc1ccc2[nH]cc(CCNCc3cccc(Cl)c3)c2c1 [Compound 5h]", 30),
]

====

Reported EC50 values for the following compounds.
target: UniProt P41595; test: Ca2+ mobilization assay; type: cell-based; details: h5-HT2B EC50, Ca2+ mobilization
Sequence (P41595 whole entry): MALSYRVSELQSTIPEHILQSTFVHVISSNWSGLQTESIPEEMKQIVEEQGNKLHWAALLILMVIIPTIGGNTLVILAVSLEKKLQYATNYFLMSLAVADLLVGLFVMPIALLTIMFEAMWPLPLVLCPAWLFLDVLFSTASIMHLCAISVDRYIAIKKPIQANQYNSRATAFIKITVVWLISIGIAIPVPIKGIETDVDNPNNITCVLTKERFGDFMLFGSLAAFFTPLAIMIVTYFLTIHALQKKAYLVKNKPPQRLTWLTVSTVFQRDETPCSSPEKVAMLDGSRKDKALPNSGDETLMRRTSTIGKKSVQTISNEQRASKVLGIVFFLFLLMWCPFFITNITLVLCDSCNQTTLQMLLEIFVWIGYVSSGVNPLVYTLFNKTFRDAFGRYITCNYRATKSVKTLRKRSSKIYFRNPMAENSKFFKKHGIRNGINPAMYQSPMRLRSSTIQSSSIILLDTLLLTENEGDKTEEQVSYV

# compound, units text, EC50
data = [
    ("COc1ccc2[nH]cc(CCNCc3ccc(Br)cc3)c2c1 [Compound 5f]", "nM", 290),
    ("COc1ccc2[nH]cc(CCNCc3cccc(Cl)c3)c2c1 [Compound 5h]", "nM", 50),
    ("COc1ccc2[nH]cc(CCNCc3cccc(I)c3)c2c1 [Compound 5i]", "nM", 43),
    ("COc1cccc(CNCCc2cc(OC)c(I)cc2OC)c1 [Compound 4a]", "nM", 38),
    ("COc1cc(CCNCc2cccc(Br)c2)c(OC)cc1I [Compound 4d]", "nM", 85),
    ("COc1cc(CCNCc2ccc(Br)cc2)c(OC)cc1I [Compound 4e]", "nM", 610),
    ("COc1ccc2[nH]cc(CCNCc3ccccc3Br)c2c1 [Compound 5d]", "nM", 168),
    ("COc1cccc(CNCCc2c[nH]c3ccc(OC)cc23)c1 [Compound 5b]", "nM", 949),
    ("COc1ccc2[nH]cc(CCNCc3cccc(Br)c3)c2c1 [Compound 5e]", "nM", 29),
    ("COc1ccc2[nH]cc(CCNCc3cccc(C(F)(F)F)c3)c2c1 [Compound 5k]", "nM", 107),
]

====

target: 5-HT1D (Homo sapiens); experiment: PDSP screening affinity 5-HT1D; format: binding; details: read-out: 5-HT1D affinity; PDSP screening, human
experimental readout: Ki (nM)

# molecule, tested target, experimental readout, observed
rows = [
    ("COc1ccc2[nH]cc(CCNCc3cccc(C)c3)c2c1 [Compound 5j]", "5-HT1D (Homo sapiens)", "Ki", 283),
]

====

biological target: human 5-HT2C receptor (Homo sapiens); experiment: h5-HT2C affinity, agonist radioligand [125I]DOI; format: binding
Sequence (P28335 33-458): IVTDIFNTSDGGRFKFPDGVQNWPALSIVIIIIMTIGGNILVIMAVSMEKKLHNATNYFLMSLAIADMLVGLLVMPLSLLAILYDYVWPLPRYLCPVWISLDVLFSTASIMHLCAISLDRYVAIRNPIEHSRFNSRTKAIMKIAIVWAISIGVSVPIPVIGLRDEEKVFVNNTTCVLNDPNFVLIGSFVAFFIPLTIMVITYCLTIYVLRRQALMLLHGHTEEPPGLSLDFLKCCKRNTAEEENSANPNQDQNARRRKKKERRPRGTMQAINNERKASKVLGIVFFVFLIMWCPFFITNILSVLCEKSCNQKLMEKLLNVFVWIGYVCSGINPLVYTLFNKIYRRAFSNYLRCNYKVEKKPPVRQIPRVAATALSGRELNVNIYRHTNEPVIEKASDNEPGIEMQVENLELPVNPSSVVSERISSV

# compound, tested target, Ki / nM
rows = [
    ("COc1ccc2[nH]cc(CCNCc3cccc(I)c3)c2c1 [Compound 5i]", "human 5-HT2C receptor (Homo sapiens)", 1.05),
    ("COc1ccc2[nH]cc(CCNCc3cccc(Cl)c3)c2c1 [Compound 5h]", "human 5-HT2C receptor (Homo sapiens)", 4.27),
    ("COc1ccc(CNCCc2c[nH]c3ccc(OC)cc23)cc1 [Compound 5c]", "human 5-HT2C receptor (Homo sapiens)", 14.1),
    ("COc1ccc(CNCCc2cc(OC)c(I)cc2OC)cc1 [Compound 4b]", "human 5-HT2C receptor (Homo sapiens)", 3.63),
    ("COc1ccc2[nH]cc(CCNCc3cccc(F)c3)c2c1 [Compound 5g]", "human 5-HT2C receptor (Homo sapiens)", 8.71),
    ("COc1ccc2[nH]cc(CCNCc3cccc(C(F)(F)F)c3)c2c1 [Compound 5k]", "human 5-HT2C receptor (Homo sapiens)", 14.8),
    ("COc1cccc(CNCCc2c[nH]c3ccc(OC)cc23)c1 [Compound 5b]", "human 5-HT2C receptor (Homo sapiens)", 5.89),
    ("COc1cc(CCNCc2ccccc2Br)c(OC)cc1I [Compound 4c]", "human 5-HT2C receptor (Homo sapiens)", 1.02),
    ("COc1cccc(CNCCc2cc(OC)c(I)cc2OC)c1 [Compound 4a]", "human 5-HT2C receptor (Homo sapiens)", 0.126),
    ("COc1ccc2[nH]cc(CCNCc3ccccc3OC)c2c1 [Compound 5a]", "human 5-HT2C receptor (Homo sapiens)", 3.39),
    ("COc1ccc2[nH]cc(CCNCc3ccc(Br)cc3)c2c1 [Compound 5f]", "human 5-HT2C receptor (Homo sapiens)", 28.8),
    ("COc1cc(CCNCc2ccc(Br)cc2)c(OC)cc1I [Compound 4e]", "human 5-HT2C receptor (Homo sapiens)", 3.31),
    ("COc1ccc2[nH]cc(CCNCc3cccc(SC)c3)c2c1 [Compound 5l]", "human 5-HT2C receptor (Homo sapiens)", 2.09),
    ("COc1ccc2[nH]cc(CCNCc3cccc(Br)c3)c2c1 [Compound 5e]", "human 5-HT2C receptor (Homo sapiens)", 5.62),
    ("COc1cc(CCNCc2cccc(Br)c2)c(OC)cc1I [Compound 4d]", "human 5-HT2C receptor (Homo sapiens)", 1.62),
    ("COc1cc(CCNCc2ccccc2OC)c(OC)cc1I [Compound 1]", "human 5-HT2C receptor (Homo sapiens)", 0.5),
    ("COc1ccc2[nH]cc(CCNCc3ccccc3Br)c2c1 [Compound 5d]", "human 5-HT2C receptor (Homo sapiens)", 14.1),
]

====

molecular target: 5-HT3 (Homo sapiens, UniProt P46098); assay: PDSP screening affinity 5-HT3; format: binding; conditions: read-out: 5-HT3 affinity; PDSP screening, human
Sequence (P46098 24-478): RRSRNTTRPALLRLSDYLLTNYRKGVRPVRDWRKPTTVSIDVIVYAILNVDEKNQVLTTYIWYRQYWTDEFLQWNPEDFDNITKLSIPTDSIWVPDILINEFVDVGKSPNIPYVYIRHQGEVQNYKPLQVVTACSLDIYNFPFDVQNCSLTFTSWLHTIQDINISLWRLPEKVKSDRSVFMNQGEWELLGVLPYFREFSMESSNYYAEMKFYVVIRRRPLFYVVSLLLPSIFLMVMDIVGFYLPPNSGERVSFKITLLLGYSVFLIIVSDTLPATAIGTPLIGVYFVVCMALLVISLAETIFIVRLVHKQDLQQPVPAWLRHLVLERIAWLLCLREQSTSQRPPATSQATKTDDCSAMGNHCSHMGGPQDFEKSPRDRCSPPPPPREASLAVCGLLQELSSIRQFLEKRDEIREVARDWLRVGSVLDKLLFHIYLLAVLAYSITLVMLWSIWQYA
pKi: −log10 of the molar value.

# query smiles, pKi
measured = [
    ("COc1ccc2[nH]cc(CCNCc3cccc(C)c3)c2c1", "< 5.00"),
]

====

Catalogue of molecules with associated Ki
molecular target: 5-HT1D (Homo sapiens, UniProt P28221); experiment: PDSP screening affinity 5-HT1D; assay type: binding
Sequence (P28221 whole entry): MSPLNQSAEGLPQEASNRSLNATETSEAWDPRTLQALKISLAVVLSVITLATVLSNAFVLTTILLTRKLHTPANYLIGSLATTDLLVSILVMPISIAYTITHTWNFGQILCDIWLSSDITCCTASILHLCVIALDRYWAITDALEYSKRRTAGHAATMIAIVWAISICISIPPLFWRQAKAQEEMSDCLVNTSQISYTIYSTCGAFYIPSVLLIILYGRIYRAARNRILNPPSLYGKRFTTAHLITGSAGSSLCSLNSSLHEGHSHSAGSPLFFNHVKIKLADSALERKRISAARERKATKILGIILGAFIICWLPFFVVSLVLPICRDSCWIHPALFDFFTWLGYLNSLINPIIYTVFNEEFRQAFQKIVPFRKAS

# query smiles, Ki [µM]
measured = [
    ("COc1cc(CCNCc2cccc(Br)c2)c(OC)cc1I", 0.162),
    ("COc1cc(CCNCc2ccccc2OC)c(OC)cc1I", 0.533),
    ("COc1ccc(CNCCc2cc(OC)c(I)cc2OC)cc1", 0.325),
    ("COc1ccc2[nH]cc(CCNCc3cccc(Br)c3)c2c1", 0.381),
    ("COc1ccc2[nH]cc(CCNCc3cccc(C(F)(F)F)c3)c2c1", 0.278),
    ("COc1ccc2[nH]cc(CCNCc3cccc(F)c3)c2c1", 0.319),
    ("COc1ccc2[nH]cc(CCNCc3cccc(I)c3)c2c1", 0.199),
    ("COc1cccc(CNCCc2cc(OC)c(I)cc2OC)c1", 0.439),
    ("COc1ccc2[nH]cc(CCNCc3ccccc3Br)c2c1", 0.782),
    ("COc1ccc2[nH]cc(CCNCc3cccc(SC)c3)c2c1", 0.659),
    ("COc1ccc2[nH]cc(CCNCc3ccc(Br)cc3)c2c1", 0.271),
    ("COc1ccc(CNCCc2c[nH]c3ccc(OC)cc23)cc1", 0.161),
    ("COc1cc(CCNCc2ccccc2Br)c(OC)cc1I", 0.423),
    ("COc1ccc2[nH]cc(CCNCc3cccc(Cl)c3)c2c1", 0.282),
    ("COc1ccc2[nH]cc(CCNCc3ccccc3OC)c2c1", 1.29),
    ("COc1cc(CCNCc2ccc(Br)cc2)c(OC)cc1I", 0.311),
    ("COc1cccc(CNCCc2c[nH]c3ccc(OC)cc23)c1", 0.334),
]
